- ASSAY DETAILS: Non-renal clearance in nephrectomized Sprague-Dawley rat at 0.1 mg/kg, iv administered as cassette dose by LC-MS/MS analysis
- Assay type: ADME, organism-based
- SETUP CONDITIONS: in vivo
Numbered stars: 1 amine (or outer) side, 2 acyl side, 3 side chain; on linkers, the order of the positions; unused ones are H or OH. Bridge positions count the residues as written; N and C are the ends. Square brackets hold non-standard residues; d marks the D form. Peptide text beside a SMILES is read from it. * marks the point of attachment. Phe(4-Me) = Cc1ccc(C[C@H](N)C(=O)O)cc1; 2Thi = N[C@@H](Cc1cccs1)C(=O)O; X2 = N=C(N)NCCC[C@H](CO)N*; X1 = O=C(CCC[*:2])[*:1]
READOUT TYPE: CL (%)

* CC(C)[C@@H]1NC(=O)[C@H](Cc2cccs2)NC(=O)[C@H](Cc2ccc(Cl)cc2)NC(=O)CCCSC[C@@H](C(=O)N2CSC[C@H]2C(=O)N[C@H](CCCNC(=N)N)C(=O)NCc2ccccc2)NC(=O)[C@H](CC(N)=O)NC1=O | 100
* Cc1ccc(C[C@@H]2NC(=O)CCCSC[C@@H](C(=O)N3CCC[C@H]3C(=O)N[C@@H](CO)CCCNC(=N)N)NC(=O)[C@H](CC(N)=O)NC(=O)[C@H](C(C)C)NC(=O)[C@H](Cc3cccs3)NC2=O)cc1 ([Phe(4-Me)][2Thi]VNCP-X2; linker N-5 via X1) | 30
* CC(C)[C@@H]1NC(=O)[C@H](Cc2cccs2)NC(=O)[C@H](Cc2ccc(O)cc2)NC(=O)CCCSC[C@@H](C(=O)N2CCC[C@H]2C(=O)N[C@H](CCCNC(=N)N)C(=O)NCc2ccccc2)NC(=O)[C@H](CC(N)=O)NC1=O | 71
* CCCNC(=O)[C@@H](CCCNC(=N)N)NC(=O)[C@@H]1CCCN1C(=O)[C@@H]1CSCCCC(=O)N[C@@H](Cc2ccc(Cl)cc2)C(=O)N[C@@H](Cc2cccs2)C(=O)N[C@@H](C(C)C)C(=O)N[C@@H](CC(N)=O)C(=O)N1 | 59
